Reference source: the supplement of paper PMC12764529

Assay Summary: folding stability dG unfold from chymotrypsin proteolysis; higher = more stable
Entry flag: True if folding stability dG unfold reaches 3 kcal/mol; False if it does not.

[[record]]
sequence_entry = "SAGGGSMEVVKEEVSEEVEVLPNGTVLTTKTITYKTPDGKEYTETVLERVDPVTGKREVIEKKTYPSSAGGS [r16_50_JUSTAS]"
group_label = "False"

[[record]]
sequence_entry = "SAGGMKTVNLTYTRYLPDKTLEEAKELAKKDLESRGLKILSLPVSREPGAGVVTVSATVEVAPPSLLSAGGS [r16_287_JUSTAS]"
group_label = "True"

[[record]]
sequence_entry = "SAGGSAGGSAGVSFVVDALFVDPNTNEVYHGHIEFYDDGTAKITLTNQNGKTKTFTFPVLFSAGGSAGGSAG [r3_61_TrMRF]"
group_label = "True"

[[record]]
sequence_entry = "SAGGSAGGVIRMPFVIPDGYVIKDLTVHWSPGNGMFMIEIEIEPVKPPPPPEISPEELNKKNNKSAGGSAGG [r6_148_TrROS]"
group_label = "False"

[[record]]
sequence_entry = "SAGGSAGGSAGKKELTFKDKNGKTITVTLEDGEIKEIKIEKPPKPKVVKTEKKYVPKEELSAGGSAGGSAGG [r17_287_TrROS_Hall]"
group_label = "False"

[[record]]
sequence_entry = "SAGGSAGGSAKPQKVELELFPNGELIIRLPETGARIRLKVEVFKDASGNPFFKLEIVDIDPSAGGSAGGSAG [r3_76_TrMRF]"
group_label = "False"

[[record]]
sequence_entry = "SAGTELELEAEAEVLFPELGTRARVRVRARVRPTEDEVEVELEVEAEFEPLPLVPPIVSPEENPELAEGSAG [r14_435_TrMRF]"
group_label = "False"

[[record]]
sequence_entry = "GMPYTVDVVIEEAEDGVIIPIKLSVDGALVAEAVAPVDPVTKKVVIKPGAASKEALDVALEKLKELGIEPGS [r1_455_TrMRF]"
group_label = "False"

[[record]]
sequence_entry = "SAGGSAGGDTLTIVVEGMSAEELAALLKELFPDAEVTVTEVGEPRLVTVTVTVKVETEFELPEESAGGSAGG [r6_607_TrROS_Hall]"
group_label = "False"

[[record]]
sequence_entry = "SAGKKYVVVIDIEVKMPGKTKPRPIVIPVPEGETIKEQLSELPGLDNVKIKIQVIPPDQDPDFAGQPISAGG [r19_339_TrROS]"
group_label = "False"

[[record]]
sequence_entry = "SAGGSAGGSAGGDERVEVFEFDAPGGYRVRLVDFGDLALVAFISPDGRPAVIPVPRELLSAGGSAGGSAGGS [r10_1075_TrMRF]"
group_label = "False"

[[record]]
sequence_entry = "SIRGMPPEVVLYIIRFFAREQKNKGMPPDDRPIEINIMMPNPEARKDAKKEIKEENPGIKDVKIEVMPPNSA [r9_341_TrROS]"
group_label = "True"

[[record]]
sequence_entry = "SAGMVKITVPSSVGPVDPSKALTFEKDDTRYILVPGEVAKEIEEKYPDLPIEIEPMSEEEAEKILKELSAGG [r19_271_JUSTAS]"
group_label = "False"

[[record]]
sequence_entry = "SAGGMKIEVRPLPGDGFVVRLPGDVVALIDPSTGEAVAFFPDGSVARLTITRDPDRPEFTITIEPVGSAGGS [r8_186_TrMRF]"
group_label = "False"

[[record]]
sequence_entry = "SAGGSAGGSAMNRYRILLLDPENGKPLVFELPGNMTPEEAKEAAEELAERFGVTVVAIEGFPSAGGSAGGSA [r18_322_TrMRF]"
group_label = "True"

[[record]]
sequence_entry = "SAGPEREVEVETLVIEAEDGKERLVLRLVRVDGRLYLEVRRYRDGKWEEVARFEAPEEITLSPELLKALSAG [r5_490_TrROS_Hall]"
group_label = "True"

[[record]]
sequence_entry = "SAGGSSVLINHTKTFSSEEEAEKEAEELKEKAKKEGFDEVKVEISKDPSGGTYTLKVTIKKKLPPDLKSAGG [r19_92_JUSTAS]"
group_label = "True"

[[record]]
sequence_entry = "SAMIEIPFSPDTPVEERLAMIKEAIEAAKAAGIEPKEITLIVPPDREDILEAVEEAGIPKERVKIKDQPSAG [r14_589_JUSTAS]"
group_label = "False"

[[record]]
sequence_entry = "SAGPIKELLEFLKANPDAVVEFEFTLPNGAKVKIKAKKFPDAVVLEVTTIDPNNKKPITGTITIPLPESAGG [r19_143_TrMRF]"
group_label = "True"

[[record]]
sequence_entry = "SAGGSAGGSAGNMEVIEEVEFTFPGLGVKISVSIFKTDGGIVIMIDIEIPMPPEDRKKFKSAGGSAGGSAGG [r17_431_TrROS]"
group_label = "False"

[[record]]
sequence_entry = "SAGGSAGGSAGGMKVIPFESLEEAREYIKANPDENVLLEFPDALLELTKPDDIKKIEKKPSAGGSAGGSAGG [r7_532_JUSTAS]"
group_label = "False"

[[record]]
sequence_entry = "SAGGSAGGSAMITTPKGERFEVPLRLTPDGRLEVLVVTDRPDDPEVRELAERLARELAERLSAGGSAGGSAG [r3_163_TrMRF]"
group_label = "False"

[[record]]
sequence_entry = "SAGGSAGGSAGGGMESKTTVTEEFSPEEVKTVTTVTTYPDGSVTETPENVKVPPGALAGSAGGSAGGSAGGS [r10_280_JUSTAS]"
group_label = "False"

[[record]]
sequence_entry = "SAGGSAGGGNWERVEFTFTKRVYDPKNGKPMKDVMVEIDVYRDPNEGALEIEIEMPPGFDYIMISAGGSAGG [r6_206_TrROS]"
group_label = "True"

[[record]]
sequence_entry = "SAGGSAGGSATIWIPVSQIEEFLKQMPPDRIKEVKITYDPEDGWIPVKIPGGREIMIWVPKSAGGSAGGSAG [r3_291_TrROS]"
group_label = "False"

[[record]]
sequence_entry = "SAGGSAGGSAGGSSSSASVEVKTETSVSYDPSTGRTYTTTTSKYPLTNTTVTTTTTDPTSAGGSAGGSAGGS [r10_187_JUSTAS]"
group_label = "False"

[[record]]
sequence_entry = "SAMSLTIETDGSLEDVIAALKAFLEANPNVPFIISPPNGEVKVIDLGLADKILVIPDPDGKVRITVINPSAG [r14_807_TrMRF]"
group_label = "False"

